Examples of binders with documented IC50 follow.
- system: T1, human TREM2 (human, UniProt Q9NZC2 19-230)
- T1 construct: on THP-1 WT cells and M2a-like macrophages (endogenous) and on CHO or HEK293T cells overexpressing human TREM2 with DAP12; also called hTREM2
- T1 sequence: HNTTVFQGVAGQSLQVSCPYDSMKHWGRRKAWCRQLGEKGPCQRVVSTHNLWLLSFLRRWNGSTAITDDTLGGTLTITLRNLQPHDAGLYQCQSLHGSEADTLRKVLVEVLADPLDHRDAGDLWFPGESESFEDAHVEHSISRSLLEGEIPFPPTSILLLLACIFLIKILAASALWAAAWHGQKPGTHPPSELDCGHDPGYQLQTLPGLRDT
- procedure text: flow cytometry, competition with LDL-Alexafluor-488 on CHO cells overexpressing human TREM2/DAP12
Value expressed in pM; do not type the unit.

Per the record, EOS006181 (antibody, V domains shown) VH: EVQLVESGGGLVQPGRSLRLSCTASGFTFDDHAMSWFRQAPGKGLEWVGFIGSKAYGGTTEYTASVKGRFTISRDGSKSIAYLQMNSLKTEDTAVYYCARGKRYSYTYWTPAFDVWGQGTMVTVSS VL: DIQMTQSPSSLSASVGDRVTITCQASQDITNYLNWYQQKPGKAPKLLIYDASNLETGVPSRFSGSGSGTDFTFTISSLQPEDIATYYCQQYDSYLTFGGGTKVEIK has IC50 of 280

Per the record, EOS006173 (antibody, V domains shown, also called EOS061730) VH: EVQLVESGGGLVQPGRSLRLSCTASGFTFGDYAMSWFRQAPGKGLEWVGFIGSKAYGGTTEYTASVKGRFTISRDGSKSIAYLQMNSLKTEDTAVYYCARGKRRDYGYWHPAFDVWGQGTMVTVSS VL: DIQMTQSPSSLSASVGDRVTITCQASQDITNYLNWYQQKPGKAPKLLIYDASNLETGVPSRFSGSGSGTDFTFTISSLQPEDIATYYCQEYDQYLTFGGGTKVEIK has IC50 of 145
